These data points were gathered from patent US20160223562A1.

target: Trypsin (Sus scrofa); construct: purchased Promega Corporation V511; assay: Trypsin cleavage of N-terminal quantification tag Ac-nitroTyr-SGK- from peptides, LC-MS with UV detection at 350 nm; assay type: biochemical; settings: trypsin protocol of example 9, 24 h, RT
Square brackets hold non-standard residues; d marks the D form. Peptide text beside a SMILES is read from it. Tyr(3-NO2) = N[C@@H](Cc1ccc(O)c([N+](=O)[O-])c1)C(=O)O
Here the recorded Kusebauch 24 h, RT: Percent Cleavage of Tag [by UV350 - Peptide-Tag vs. Tag] is given for each entry.
Lab book: enter the figure in %, no units written.

The value of Kusebauch 24 h, RT: Percent Cleavage of Tag [by UV350 - Peptide-Tag vs. Tag] measured for the molecule CC[C@H](C)[C@H](NC(=O)[C@H](Cc1ccccc1)NC(=O)[C@H](Cc1ccc(O)cc1)NC(=O)[C@H](Cc1c[nH]cn1)NC(=O)[C@@H](NC(=O)[C@H](Cc1c[nH]c2ccccc12)NC(=O)[C@H](CCCCN)NC(=O)CNC(=O)[C@H](CO)NC(=O)[C@H](Cc1ccc(O)c([N+](=O)[O-])c1)NC(C)=O)[C@@H](C)O)C(=O)N[C@@H](CC(=O)O)C(=O)N[C@@H](CC(C)C)C(=O)N[C@@H](CC(N)=O)C(=O)N[C@@H](CCCCN)C(=O)O [Peptide 19, Ac-nitroTyr-SGKWTHYFIDLN-K-OH] (Ac-[Tyr(3-NO2)]SGKWTHYFIDLNK-OH) turned out to be 100.0

The value of Kusebauch 24 h, RT: Percent Cleavage of Tag [by UV350 - Peptide-Tag vs. Tag] measured for the molecule CC(=O)N[C@@H](Cc1ccc(O)c([N+](=O)[O-])c1)C(=O)N[C@@H](CO)C(=O)NCC(=O)N[C@@H](CCCCN)C(=O)N[C@@H](CCC(N)=O)C(=O)N[C@H](C(=O)N[C@@H](C)C(=O)N[C@@H](CC(C)C)C(=O)N[C@@H](CO)C(=O)N[C@@H](CC(C)C)C(=O)N[C@@H](CC(=O)O)C(=O)N[C@@H](CC(=O)O)C(=O)N[C@H](C(=O)N[C@@H](CCCCN)C(=O)O)C(C)C)C(C)C [Peptide 34, Ac-nitroTyr-SGKQVALSLDDV-K-OH] (Ac-[Tyr(3-NO2)]SGKQVALSLDDVK-OH) turned out to be 100.0

----------
molecular target: Trypsin (Sus scrofa, UniProt P00761); construct: purchased Promega Corporation V511; test: Trypsin cleavage of N-terminal quantification tag Ac-nitroTyr-SGK- from peptides, LC-MS with UV detection at 350 nm; type: biochemical; conditions: trypsin protocol of example 9, 24 h, RT
Sequence (P00761 9-231): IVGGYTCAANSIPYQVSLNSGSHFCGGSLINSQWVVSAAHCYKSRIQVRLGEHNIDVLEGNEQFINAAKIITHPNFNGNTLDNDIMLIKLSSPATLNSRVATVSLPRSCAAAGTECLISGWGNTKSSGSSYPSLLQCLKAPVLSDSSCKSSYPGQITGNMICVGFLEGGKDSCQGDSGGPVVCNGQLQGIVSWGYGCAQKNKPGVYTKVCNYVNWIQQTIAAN
Square brackets hold non-standard residues; d marks the D form. Peptide text beside a SMILES is read from it. Tyr(3-NO2) = N[C@@H](Cc1ccc(O)c([N+](=O)[O-])c1)C(=O)O
Here the recorded Kusebauch 24 h, RT: Percent Cleavage of Tag [by UV350 - Peptide-Tag vs. Tag] is given for each entry.
Lab book: enter the figure in %, no units written.

molecule	endpoint.result
CC(=O)N[C@@H](Cc1ccc(O)c([N+](=O)[O-])c1)C(=O)N[C@@H](CO)C(=O)NCC(=O)N[C@@H](CCCCN)C(=O)N[C@H](C(=O)N[C@H](C(=O)N[C@@H](C)C(=O)N[C@@H](CC(C)C)C(=O)N[C@@H](CO)C(=O)N[C@@H](CC(C)C)C(=O)N[C@@H](CC(=O)O)C(=O)N[C@@H](CC(=O)O)C(=O)N[C@H](C(=O)N[C@@H](CCCCN)C(=O)O)C(C)C)C(C)C)[C@@H](C)O [Peptide 37, Ac-nitroTyr-SGKTVALSLDDV-K-OH] (Ac-[Tyr(3-NO2)]SGKTVALSLDDVK-OH)	100.0

Let us examine a further case.
The value of Kusebauch 24 h, RT: Percent Cleavage of Tag [by UV350 - Peptide-Tag vs. Tag] measured for the molecule CC(=O)N[C@@H](Cc1ccc(O)c([N+](=O)[O-])c1)C(=O)N[C@@H](CO)C(=O)NCC(=O)N[C@@H](CCCCN)C(=O)N[C@@H](CCC(=O)O)C(=O)N[C@H](C(=O)N[C@@H](C)C(=O)N[C@@H](CC(C)C)C(=O)N[C@@H](CO)C(=O)N[C@@H](CC(C)C)C(=O)N[C@@H](CC(=O)O)C(=O)N[C@@H](CC(=O)O)C(=O)N[C@H](C(=O)N[C@@H](CCCCN)C(=O)O)C(C)C)C(C)C [Peptide 24, Ac-nitroTyr-SGKEVALSLDDV-K-OH] (Ac-[Tyr(3-NO2)]SGKEVALSLDDVK-OH) turned out to be 100.0

----------
Here the recorded Kusebauch 24 h, RT: Percent Cleavage of Tag [by UV350 - Peptide-Tag vs. Tag] is given for each entry.
biological target: Trypsin (Sus scrofa); construct: purchased Promega Corporation V511; assay: Trypsin cleavage of N-terminal quantification tag Ac-nitroTyr-SGK- from peptides, LC-MS with UV detection at 350 nm; format: biochemical; details: trypsin protocol of example 9, 24 h, RT
Square brackets hold non-standard residues; d marks the D form. Peptide text beside a SMILES is read from it. Tyr(3-NO2) = N[C@@H](Cc1ccc(O)c([N+](=O)[O-])c1)C(=O)O
Lab book: enter the figure in %, no units written.

compound	result.units	endpoint.result
CC[C@H](C)[C@H](NC(=O)[C@H](Cc1ccccc1)NC(=O)[C@H](Cc1ccc(O)cc1)NC(=O)[C@H](Cc1c[nH]cn1)NC(=O)[C@@H](NC(=O)CNC(=O)[C@H](CCCCN)NC(=O)CNC(=O)[C@H](CO)NC(=O)[C@H](Cc1ccc(O)c([N+](=O)[O-])c1)NC(C)=O)[C@@H](C)O)C(=O)N[C@@H](CC(=O)O)C(=O)N[C@@H](CC(C)C)C(=O)N[C@@H](CC(N)=O)C(=O)N[C@@H](CCCCN)C(=O)O [Peptide 6, Ac-nitroTyr-SGKGTHYFIDLN-K-OH] (Ac-[Tyr(3-NO2)]SGKGTHYFIDLNK-OH)	%	100.0

The value of Kusebauch 24 h, RT: Percent Cleavage of Tag [by UV350 - Peptide-Tag vs. Tag] measured for the compound CC(=O)N[C@@H](Cc1ccc(O)c([N+](=O)[O-])c1)C(=O)N[C@@H](CO)C(=O)NCC(=O)N[C@@H](CCCCN)C(=O)NCC(=O)N[C@H](C(=O)N[C@@H](C)C(=O)N[C@@H](CC(C)C)C(=O)N[C@@H](CO)C(=O)N[C@@H](CC(C)C)C(=O)N[C@@H](CC(=O)O)C(=O)N[C@@H](CC(=O)O)C(=O)N[C@H](C(=O)N[C@@H](CCCCN)C(=O)O)C(C)C)C(C)C [Peptide 26, Ac-nitroTyr-SGKGVALSLDDV-K-OH] (Ac-[Tyr(3-NO2)]SGKGVALSLDDVK-OH) turned out to be 99.3

----------
target: Trypsin (Sus scrofa); construct: purchased Promega Corporation V511; assay: Trypsin cleavage of N-terminal quantification tag Ac-nitroTyr-SGK- from peptides, LC-MS with UV detection at 350 nm; format: biochemical; settings: trypsin protocol of example 9, 24 h, RT
Square brackets hold non-standard residues; d marks the D form. Peptide text beside a SMILES is read from it. Tyr(3-NO2) = N[C@@H](Cc1ccc(O)c([N+](=O)[O-])c1)C(=O)O
Here the recorded Kusebauch 24 h, RT: Percent Cleavage of Tag [by UV350 - Peptide-Tag vs. Tag] is given for each entry.
Lab book: enter the figure in %, no units written.

compound	result.units	endpoint.result
CC(=O)N[C@@H](Cc1ccc(O)c([N+](=O)[O-])c1)C(=O)N[C@@H](CO)C(=O)NCC(=O)N[C@@H](CCCCN)C(=O)N[C@H](C(=O)N[C@H](C(=O)N[C@@H](C)C(=O)N[C@@H](CC(C)C)C(=O)N[C@@H](CO)C(=O)N[C@@H](CC(C)C)C(=O)N[C@@H](CC(=O)O)C(=O)N[C@@H](CC(=O)O)C(=O)N[C@H](C(=O)N[C@@H](CCCCN)C(=O)O)C(C)C)C(C)C)C(C)C [Peptide 38, Ac-nitroTyr-SGKVVALSLDDV-K-OH] (Ac-[Tyr(3-NO2)]SGKVVALSLDDVK-OH)	%	100.0

Let us examine a further case.
The value of Kusebauch 24 h, RT: Percent Cleavage of Tag [by UV350 - Peptide-Tag vs. Tag] measured for the compound CC[C@H](C)[C@H](NC(=O)[C@H](Cc1ccccc1)NC(=O)[C@H](Cc1ccc(O)cc1)NC(=O)[C@H](Cc1c[nH]cn1)NC(=O)[C@@H](NC(=O)[C@H](CC(C)C)NC(=O)[C@H](CCCCN)NC(=O)CNC(=O)[C@H](CO)NC(=O)[C@H](Cc1ccc(O)c([N+](=O)[O-])c1)NC(C)=O)[C@@H](C)O)C(=O)N[C@@H](CC(=O)O)C(=O)N[C@@H](CC(C)C)C(=O)N[C@@H](CC(N)=O)C(=O)N[C@@H](CCCCN)C(=O)O [Peptide 10, Ac-nitroTyr-SGKLTHYFIDLN-K-OH] (Ac-[Tyr(3-NO2)]SGKLTHYFIDLNK-OH) turned out to be 100.0
